Exercise: state measured NRG1β Emax ± SE in the presence of candidate for each of the compounds provided.
Test system: BaF3/EGFR+ErbB4 cells
Assay: ErbB4-dependent (NRG1β-induced, IL3-independent) proliferation of BaF3/EGFR+ErbB4 cells, semi-automated MTT assay
Assay type: cell-based, Mouse
Settings: candidate 30 μM; increasing NRG1β; three trials; 120 h MTT
Procedure: This proliferation is dependent upon exogenous ErbB4 expression. As noted earlier, the BaF3/EGFR+ErbB4 cells are IL3 dependent and this dependency can be rescued by stimulation of ErbB4 coupling to cell proliferation. Therefore, the specificity of each of the 19 candidate ErbB4 inhibitors was tested by assaying inhibition of ErbB4-dependent and IL3-dependent cellular proliferation in parallel.
All answers are understood in AU, so give the number only.

Write down the reported NRG1β Emax ± SE in the presence of candidate (system: BaF3/EGFR+ErbB4 cells) of CCOC(=O)C1=C(N)OC2=C(C(=O)CC(C)(C)C2)C1C1CCCCC1 (stereo not shown) 0.15

Write down the reported NRG1β Emax ± SE in the presence of candidate (system: BaF3/EGFR+ErbB4 cells) of CCC(=O)NC(N(Cc1ccccc1)Cc1ccccc1)C(Cl)(Cl)Cl (stereo not shown) 0

Write down the reported NRG1β Emax ± SE in the presence of candidate (system: BaF3/EGFR+ErbB4 cells) of CCCOc1ccc(C(=O)C(CCCCC(CN(C)C)C(=O)c2ccc(OCCC)cc2)CN(C)C)cc1 (stereo not shown) 0

Write down the reported NRG1β Emax ± SE in the presence of candidate (system: BaF3/EGFR+ErbB4 cells) of Cc1nn(-c2ccccc2)c2c1C(c1ccccc1F)SCC(=O)N2 (stereo not shown) 0.03

Write down the reported NRG1β Emax ± SE in the presence of candidate (system: BaF3/EGFR+ErbB4 cells) of O=C(CC1c2ccccc2Oc2ccccc21)NCCOc1ccccc1 0.03

Write down the reported NRG1β Emax ± SE in the presence of candidate (system: BaF3/EGFR+ErbB4 cells) of COc1cc(CNCC2CCNCC2)cc(Cl)c1OCc1ccc(C)cc1 0

Write down the reported NRG1β Emax ± SE in the presence of candidate (system: BaF3/EGFR+ErbB4 cells) of COc1ccc(C2CCCN2C(=O)c2c(-c3ccccc3Cl)noc2C)cc1 (stereo not shown) 0.11

Write down the reported NRG1β Emax ± SE in the presence of candidate (system: BaF3/EGFR+ErbB4 cells) of O=C1NC2=Nc3ccccc3SC(c3ccccc3)=C2C(c2ccc(O)cc2)N1 (stereo not shown) 0

Write down the reported NRG1β Emax ± SE in the presence of candidate (system: BaF3/EGFR+ErbB4 cells) of O=[N+]([O-])c1ccc(CN2CCN(C3CCC(c4ccccc4)CC3)CC2)cc1 (stereo not shown) 0.09

Write down the reported NRG1β Emax ± SE in the presence of candidate (system: BaF3/EGFR+ErbB4 cells) of O=S(=O)(NCc1cccnc1)c1ccc(Br)cc1Br 0.01

From: paper PMC7773179
